# Read-out: Early growth response protein 1 (EGR1) transcription factor, EGR1 (gene 1958)
# experimental protocol: LTEA_HepaRG_EGR1: Life Technologies and Expression Analysis (LTEA) Assay for Early growth response protein 1 (EGR1) transcription factor using HepaRG (AID 2283490)
# conditions: mRNA level, 48 h; actives raise or lower the signal
The source made the active and inactive calls. How the source made its calls: active means hit-call score of the fitted dose curve at least 0.9, where 1 is the maximum; inactive means score below 0.9.
property name: AC50

- compound: "COc1ccc(C(c2ccc(OC)cc2)C(Cl)(Cl)Cl)cc1"
  property name: "AC50"
  result: "73 µM (active)"
- compound: "COc1cnc(OC)n2nc(NS(=O)(=O)c3c(OCC(F)F)cccc3C(F)(F)F)nc12"
  property name: "AC50"
  result: "inactive"
- compound: "C=CC1(C)OC(=O)N(c2cc(Cl)cc(Cl)c2)C1=O (centres undefined)"
  property name: "AC50"
  result: "inactive"
- compound: "Cc1ccc(-c2c(Cl)nc(C#N)n2S(=O)(=O)N(C)C)cc1"
  property name: "AC50"
  result: "inactive"
- compound: "N#Cc1cc(Br)c(O)c(Br)c1"
  property name: "AC50"
  result: "10 µM (active)"
- compound: "CCCCC(CC)COC(=O)c1ccccc1C(=O)OCC(CC)CCCC (centres undefined)"
  property name: "AC50"
  result: "inactive"
- compound: "CCOC(=O)CC(SP(=S)(OC)OC)C(=O)OCC (centres undefined)"
  property name: "AC50"
  result: "inactive"
- compound: "CC(C)(C)c1ccc(CSc2cnn(C(C)(C)C)c(=O)c2Cl)cc1"
  property name: "AC50"
  result: "1.12 µM (active)"
- compound: "CCCCNC(=O)n1c(NC(=O)OC)nc2ccccc21"
  property name: "AC50"
  result: "inactive"
